biological target: human OT7T175 (metastin receptor) (human, UniProt Q969F8 1-398); experiment: cell-based or functional assay
Sequence (Q969F8 whole entry L364H): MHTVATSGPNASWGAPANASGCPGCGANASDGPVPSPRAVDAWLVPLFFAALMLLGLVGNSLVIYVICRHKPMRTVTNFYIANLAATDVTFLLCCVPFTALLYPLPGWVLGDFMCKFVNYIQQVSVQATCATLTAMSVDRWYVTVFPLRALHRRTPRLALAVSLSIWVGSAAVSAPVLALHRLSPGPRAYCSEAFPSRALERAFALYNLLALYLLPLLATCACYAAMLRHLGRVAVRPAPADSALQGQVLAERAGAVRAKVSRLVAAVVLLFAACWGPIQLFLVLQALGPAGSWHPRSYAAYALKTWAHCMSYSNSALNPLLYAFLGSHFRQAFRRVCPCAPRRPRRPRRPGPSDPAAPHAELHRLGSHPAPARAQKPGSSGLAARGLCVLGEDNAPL
Square brackets hold non-standard residues; d marks the D form. Ends that are not written are not given here. Arg(Me) = CNC(=N)NCCC[C@H](N)C(=O)O; d3Pal = N[C@H](Cc1cccnc1)C(=O)O; Cha = N[C@@H](CC1CCCCC1)C(=O)O; azaGly = NNC(=O)O
assay metric: intracellular Ca ion level-increasing activity (FLIPR)

Lab note: measured intracellular Ca ion level-increasing activity (FLIPR) of [d3Pal][dY][Cha]NSF[azaGly]L[Arg(Me)]F-NH2 (N-terminus assumed; SMILES CNC(=N)NCCC[C@H](NC(=O)[C@H](CC(C)C)NC(=O)NNC(=O)[C@H](Cc1ccccc1)NC(=O)[C@H](CO)NC(=O)[C@H](CC(N)=O)NC(=O)[C@H](CC1CCCCC1)NC(=O)[C@@H](Cc1ccc(O)cc1)NC(=O)[C@H](N)Cc1cccnc1)C(=O)N[C@@H](Cc1ccccc1)C(N)=O) [Compound No. 291: [D-Pya(3)1,D-Tyr2,Cha3,AzaGly7,Arg(Me)9]MS10] was 2 specific activity to metastin (1-54)
